experiment: folding stability dG unfold from trypsin proteolysis; higher = more stable
folding stability dG unfold vs 1 kcal/mol: at or above is criterion met, below is criterion not met.

Determine whether measured folding stability dG unfold meets or exceeds 1 kcal/mol for SAGGSAGGSAGGMTKISVNIVIYDPKNNTTKIIPITMSESEIKKVKEELVPKNMSAKILSAGGSAGGSAGGS [r10_397_JUSTAS]
criterion not met

Determine whether measured folding stability dG unfold meets or exceeds 1 kcal/mol for SMIVTEEVSYDPSTNTRTITKTVYEKDENGNLVPVETEVVVEPVEEPPPYVPVIKVPPSNKTPEDRVKVLSA [r9_888_JUSTAS]
criterion not met

Determine whether measured folding stability dG unfold meets or exceeds 1 kcal/mol for SVEKAREALEEAGFEVTRIEVREDGTVRVTVRRDGKLVEIELTVEPPPPVEVVEEEPEVRVERRYSAEDLSA [r9_2_TrROS_Hall]
criterion not met

Determine whether measured folding stability dG unfold meets or exceeds 1 kcal/mol for SASASQTTIEYTVPVPAGTSPDEPLTLTVTLPDKEIPIEVGTLENLPPDATVTITLDTTEPTFTVTLTPSAG [r14_554_JUSTAS]
criterion met

Determine whether measured folding stability dG unfold meets or exceeds 1 kcal/mol for SKLPPGQPYRRVEMTITFDFKSPKELRKKIRELFGKIEVDMKHNPEDNWYTIDIWFPSPAVMDELKELIFSA [r9_764_TrROS]
criterion met

Determine whether measured folding stability dG unfold meets or exceeds 1 kcal/mol for SAGGSAGGAVDPALVSEETTSTSYYPDGTVVTTTTLKVPGKGTTVTLTTVTPLPPSSPSPSASLSAGGSAGG [r6_758_JUSTAS]
criterion met

Determine whether measured folding stability dG unfold meets or exceeds 1 kcal/mol for SAGGSAGGSAGLPGAEKARKPKPKVKVKVTLTVLPDGTLVLRVTFEDGTTKTITLKLHPDLLSAGGSAGGSA [r18_192_TrMRF]
criterion met
